These measurements were taken from paper PMC5540273.

Test system: JNK3
Construct: gene MAPK10
cond: concentration: 1 μM, replicates: in singlicate; n = 1;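 note: KINOMEscan kinase panel screen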
Task for the reader: assign each of the following molecules its reported %Inh.
# unit: % | format: bare number

IN: Provide value of %Inh for this record tested with JNK3: COc1cccc(NC(=O)NC2CCN(c3ccnc(Nc4cc(OC)c(OC)c(OC)c4)n3)C2)c1 (stereo not shown) [GSK1379763]
OUT: 39

IN: Entry Cl.NC(=O)c1cccc(Nc2nccc(Nc3ccc(Oc4c(Cl)cccc4Cl)c(Cl)c3)n2)c1 [GW659009] , system JNK3: what %Inh was measured?
OUT: 1

IN: Which measured %Inh belongs to Cn1cc(-c2ccc3c(c2)CCN3C(=O)Cc2cccc(Cl)c2)c2c(N)ncnc21 [GSK2606590] , tested on JNK3?
OUT: 6

IN: Enter reported %Inh observed with JNK3 for O=c1[nH]cc(-c2ccc(N3CCOCC3)cc2)c2sc(-c3cn[nH]c3)cc12 [GSK2276055]
OUT: 10

IN: // map c1ccc(-c2n[nH]cc2Nc2ccnc3ccccc23)nc1 [GW694077] to recorded %Inh (system: JNK3)
OUT: 90

IN: Reported %Inh for JNK3, given `Cc1ccc(C(=O)N2CC[C@@H](O)C2)cc1-n1c(C)cc(OCc2ccc(F)cc2F)c(Br)c1=O` ?
OUT: 0

IN: For the record Cl.Cl.NCC(NCc1ccc(-c2ccnc3[nH]ccc23)s1)c1ccccc1 (stereo not shown) [GSK1321565] , what value of %Inh is listed for JNK3?
OUT: 4

IN: Form field - read-out: %Inh; system: JNK3; submitted item: `COc1cc2c(cc1OCCN1CCNCC1)ncc1c3ccc(C#N)cc3[nH]c21`
OUT: 0

IN: Give JNK3 %Inh for `Cc1cccc(NC(=O)Nc2ccc(Oc3ncnc4ccn(C)c34)cc2)c1`
OUT: 0

IN: Given the entry Cl.c1ccc(-c2ccc3c(Nc4ccc5[nH]ncc5c4)ccnc3c2)nc1 [GW440137] , what %Inh was observed with JNK3?
OUT: 15

* * *

Test system: TRPM6
cond: concentration: 1 μM, replicates: in singlicate; n = 1
Task for the reader: assign each of the following compounds its reported %Inh.
Field: numeric (%). Do not append units.

IN: Form entry - test system: TRPM6; read-out: %Inh; compound: Cl.Cl.NCC(NC(=O)c1cc(-c2ccccc2)c(-c2ccnc3[nH]ccc23)s1)c1ccccc1 (centres unmarked)
OUT: 28

IN: Please provide the recorded %Inh for `Cc1ccc(F)c(C(=O)Nc2cccc(-c3nn4ccccc4c3-c3ccnc(Nc4cccc(F)c4)n3)c2)c1F` , tested on TRPM6.
OUT: 36

IN: API: value(readout=%Inh, system=TRPM6) for record `COC(=O)Nc1nc2cc(Oc3ccc(NC(=O)Nc4cc(C(F)(F)F)ccc4F)cn3)ccc2[nH]1.Cl.Cl`
OUT: 29

IN: Fill in the recorded %Inh for this compound, with TRPM6 as test system: `O=C(Nc1ccccc1F)NC1CCN(c2ccnc(Nc3ccc(F)cc3)n2)CC1`
OUT: 0

IN: Provide value of %Inh for this record tested with TRPM6: `Cc1ccc(C(=O)N2CC[C@@H](O)C2)cc1-n1c(C)cc(OCc2ccc(F)cc2F)c(Br)c1=O`
OUT: 0

IN: For TRPM6, provide %Inh of `Nc1ncc(-c2ccc3nccc(-c4ccncc4)c3c2)cc1S(=O)(=O)N1CCOCC1` please.
OUT: 0

IN: Write down the reported %Inh of `O=C(Nc1cccc(-c2nn3ncccc3c2-c2ccnc(Nc3ccccc3)n2)c1)c1c(F)cccc1F` , test system: TRPM6.
OUT: 55

IN: GET /values?readout=%Inh&system=TRPM6&item= `CN(c1ccc(NC(=O)Nc2cc(C(F)(F)F)ccc2F)cc1)c1ccnc(Nc2ccc(S(N)(=O)=O)cc2)n1`
OUT: 31
